The measured values listed here are drawn from ChEMBL document CHEMBL5058577.

# Test system: HEK-293T
# assay_notes: Multiplex assay against HEK293T
# Format: toxicity, cell-based
# details: human, 48 h, 10 µM, compound concentration 10 uM, replicate 2
# class assignment by measured Population Hoechst High Intensity Objects (%): lower bin (below 4%), middle bin (4% to below 8%), upper bin (8% or more)

Worked set:
COc1cc2nc(N3CCN(C(=O)COc4c(OC)cccc4C(C)C)CC3)nc(N)c2cc1OC.Cl.Cl: upper bin
Cc1cc(O)c(-c2ccc([C@@H](C)CN(C)C)cc2)c2c1[nH]c(=O)c1sccc12: upper bin
COc1cc(Nc2ncc3c(n2)-c2ccc(Cl)cc2C(c2c(F)cccc2OC)=NC3)ccc1C(=O)O [ALISERTIB]: upper bin
OCCCNc1cc(-c2ccnc(Nc3cccc(Cl)c3)n2)ccn1: upper bin

For this molecule, which bin applies? CN1CCN(c2ccc(Nc3c4ccccc4nc4ccccc34)cc2)CC1.Cl.Cl.O
middle bin

Kindly state the category for this molecule: O=C(Nc1cc(-c2ccccc2)nn1-c1ccccc1F)c1ccc([N+](=O)[O-])cc1
lower bin

Band for the recorded Population Hoechst High Intensity Objects (%) of Cl.Cl.OCCOCCN1CCN(C(c2ccccc2)c2ccc(Cl)cc2)CC1 (centres undefined) [HYDROXYZINE HYDROCHLORIDE] ?
upper bin

Please indicate the class for C[C@@H]1CC(=O)Nc2cccc(-c3ccc4c(c3)c(-c3cnn(C)c3)nn4C)c2N1 based on its Population Hoechst High Intensity Objects (%).
lower bin

Which of the defined bands does the recorded Population Hoechst High Intensity Objects (%) of S=C(NCCCc1c[nH]cn1)NCCCN(Cc1ccc(Cl)c(Cl)c1)c1ccc(Br)cn1 sit within?
upper bin

# classify by Population Hoechst High Intensity Objects (%) band: CN1CCC(C(=O)c2cccc(NC(=O)c3c(F)cc(F)cc3F)n2)CC1
middle bin
